Where do these numbers come from? They come from ChEMBL document CHEMBL4145664.

- System: HepG2
- assay-overview: Cytotoxicity against human HepG2 cells assessed as effect on cell viability at 0.5 to 100 uM after 24 hrs by MTT assay
- Assay type: cell-based
- details: hepg2, 24 h
readout-kind: Activity

Solved entries (count: 5):
C=C1CC[C@H]2C(C)(C)CCC[C@]2(C)C1C/C=C(/C=O)CC(=O)OCc1cn(CC(=O)c2ccc(C#N)cc2)nn1 (some centres not stated)	Non-Toxic
C=C1CC[C@H]2C(C)(C)CCC[C@]2(C)C1C/C=C(/C=O)CC(=O)OCc1cn(Cc2ccc(OC)cc2)nn1 (some centres not stated)	Non-Toxic
C=C1CC[C@H]2C(C)(C)CCC[C@]2(C)C1C/C=C(/C=O)CC(=O)OCc1cn(Cc2cc(OC)ccc2Br)nn1 (some centres not stated)	Non-Toxic
C=C1CC[C@H]2C(C)(C)CCC[C@]2(C)C1C/C=C(/C=O)CC(=O)OCc1cn(Cc2ccccc2)nn1 (some centres not stated)	Non-Toxic
C=C1CC[C@H]2C(C)(C)CCC[C@]2(C)C1C/C=C(/C=O)CC(=O)OCc1cn(Cc2ccc(C(C)(C)C)cc2)nn1 (some centres not stated)	Non-Toxic

Batch request: Activity per item, same order as input.
1. C=C1CC[C@H]2C(C)(C)CCC[C@]2(C)C1C/C=C(/C=O)CC(=O)OCc1cn(Cc2ccc(F)cc2)nn1 (some centres not stated)
2. C=C1CC[C@H]2C(C)(C)CCC[C@]2(C)C1C/C=C(/C=O)CC(=O)OCc1cn(Cc2ccc(F)cc2Br)nn1 (some centres not stated)

Key:
1: Non-Toxic; 2: Non-Toxic
